Readings of MIC for the listed compounds
system: Streptococcus pyogenes; assay: The compound was tested for antibacterial activity against Streptococcus pyogenes C203.; type: functional
endpoint: MIC (µg/mL)

compound="CC1=C(C(=O)O)N2C(=O)C(NC(=O)C(N)c3csc4ccccc34)C2SC1 (centres undefined)" number=2
compound="CC1=C(C(=O)O)N2C(=O)C(NC(=O)[C@@H](N)c3csc4ccccc34)C2SC1 (some centres undefined)" number=16
compound="CC1=C(C(=O)O)N2C(=O)[C@@H](NC(=O)[C@H](N)c3ccccc3)[C@H]2SC1 [CEPHALEXIN ANHYDROUS]" number=0.5
compound="CC1=C(C(=O)O)N2C(=O)C(NC(=O)[C@H](N)c3csc4ccccc34)C2SC1 (some centres undefined)" number=0.5
